# tested_on: zip-3 (W07G1.3) (Caenorhabditis elegans) (UniProt Q9XUK2)
# Sequence: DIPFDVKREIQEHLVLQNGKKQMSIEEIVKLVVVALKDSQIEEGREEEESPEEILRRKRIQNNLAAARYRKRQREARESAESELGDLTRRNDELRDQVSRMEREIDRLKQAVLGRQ
Listed here: items and their measured binding signal (PBM E-score (-0.5 to 0.5)).
value_type: binding signal (PBM E-score (-0.5 to 0.5))

>>> obs_value("GATGACGC (double strand) [8-mer GATGACGC]")
0.493
>>> obs_value("ACGTCATC (double strand) [8-mer ACGTCATC]")
0.493
>>> obs_value("ATATGACG (double strand) [8-mer ATATGACG]")
0.493
>>> obs_value("ACGTCATA (double strand) [8-mer ACGTCATA]")
0.493
>>> obs_value("AACGTCAT (double strand) [8-mer AACGTCAT]")
0.486
>>> obs_value("ATGACGCG (double strand) [8-mer ATGACGCG]")
0.488
>>> obs_value("ATATGATG (double strand) [8-mer ATATGATG]")
0.486
>>> obs_value("ATGACGTC (double strand) [8-mer ATGACGTC]")
0.493
>>> obs_value("TGACATCA (double strand) [8-mer TGACATCA]")
0.49
>>> obs_value("CGTCATCA (double strand) [8-mer CGTCATCA]")
0.489
>>> obs_value("ACGTCATG (double strand) [8-mer ACGTCATG]")
0.486
>>> obs_value("TGACGTCA (double strand) [8-mer TGACGTCA]")
0.5
>>> obs_value("AGATGACG (double strand) [8-mer AGATGACG]")
0.487
>>> obs_value("ATGACGTG (double strand) [8-mer ATGACGTG]")
0.494
>>> obs_value("ATGACGTA (double strand) [8-mer ATGACGTA]")
0.49

---

# tested_on: ces-1 (F43G9.11) (Caenorhabditis elegans)
# Sequence: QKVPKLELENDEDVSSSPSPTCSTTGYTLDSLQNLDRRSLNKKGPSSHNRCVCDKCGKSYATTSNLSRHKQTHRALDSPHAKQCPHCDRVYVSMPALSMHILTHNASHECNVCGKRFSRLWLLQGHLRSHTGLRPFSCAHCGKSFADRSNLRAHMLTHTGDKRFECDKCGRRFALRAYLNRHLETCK
value_type: binding signal (PBM E-score (-0.5 to 0.5))

>>> obs_value("AACAGGTG (double strand) [8-mer AACAGGTG]")
0.468
>>> obs_value("AGCAACAG (double strand) [8-mer AGCAACAG]")
0.466
>>> obs_value("ACCTGTTG (double strand) [8-mer ACCTGTTG]")
0.493
>>> obs_value("CCTGTTGC (double strand) [8-mer CCTGTTGC]")
0.479
>>> obs_value("ACTTGTTG (double strand) [8-mer ACTTGTTG]")
0.465
>>> obs_value("ACCTGTAG (double strand) [8-mer ACCTGTAG]")
0.452

---

# tested_on: nhr-42 (C33G8.6) (Caenorhabditis elegans) (UniProt O76828)
# Sequence: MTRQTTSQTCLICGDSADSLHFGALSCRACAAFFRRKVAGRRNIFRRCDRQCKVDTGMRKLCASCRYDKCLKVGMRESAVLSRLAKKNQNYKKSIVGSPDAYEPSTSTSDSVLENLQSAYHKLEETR
value_type: binding signal (PBM E-score (-0.5 to 0.5))

>>> obs_value("CGTAGTCA (double strand) [8-mer CGTAGTCA]")
0.48
>>> obs_value("AGTCACAA (double strand) [8-mer AGTCACAA]")
0.489
>>> obs_value("AGTCACAT (double strand) [8-mer AGTCACAT]")
0.481
>>> obs_value("TAGTCACA (double strand) [8-mer TAGTCACA]")
0.494
>>> obs_value("AGGTCACA (double strand) [8-mer AGGTCACA]")
0.486
>>> obs_value("AGACTACG (double strand) [8-mer AGACTACG]")
0.492
>>> obs_value("ACTACGAT (double strand) [8-mer ACTACGAT]")
0.482
>>> obs_value("GACTACGA (double strand) [8-mer GACTACGA]")
0.487
>>> obs_value("CACTACGA (double strand) [8-mer CACTACGA]")
0.485

---

# tested_on: fkh-9 (K03C7.2) (Caenorhabditis elegans) (UniProt Q21187)
# Sequence: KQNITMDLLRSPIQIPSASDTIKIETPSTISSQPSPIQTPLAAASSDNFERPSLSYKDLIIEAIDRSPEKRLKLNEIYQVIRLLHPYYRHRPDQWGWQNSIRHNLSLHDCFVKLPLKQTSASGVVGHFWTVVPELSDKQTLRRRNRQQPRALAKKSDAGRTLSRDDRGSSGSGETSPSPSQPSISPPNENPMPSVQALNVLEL
Listed here: items and their measured binding signal (PBM E-score (-0.5 to 0.5)).
value_type: binding signal (PBM E-score (-0.5 to 0.5))

>>> obs_value("ATAAACAA (double strand) [8-mer ATAAACAA]")
0.485
>>> obs_value("CAAAACAA (double strand) [8-mer CAAAACAA]")
0.494
>>> obs_value("AAAAACAA (double strand) [8-mer AAAAACAA]")
0.49
>>> obs_value("AGTAAACA (double strand) [8-mer AGTAAACA]")
0.485

---

This section lists binding signal (PBM E-score (-0.5 to 0.5)) readings for ceh-53 (C09G12.1) (Caenorhabditis elegans).
value_type: binding signal (PBM E-score (-0.5 to 0.5))

>>> obs_value("CGGATTAA (double strand) [8-mer CGGATTAA]")
0.494
>>> obs_value("AGGATTAG (double strand) [8-mer AGGATTAG]")
0.496
>>> obs_value("AAGGATTA (double strand) [8-mer AAGGATTA]")
0.495
>>> obs_value("ATTAATCC (double strand) [8-mer ATTAATCC]")
0.495
>>> obs_value("GGGATTAA (double strand) [8-mer GGGATTAA]")
0.496
>>> obs_value("GCGGATTA (double strand) [8-mer GCGGATTA]")
0.494
>>> obs_value("GGGGATTA (double strand) [8-mer GGGGATTA]")
0.497
>>> obs_value("ACGGATTA (double strand) [8-mer ACGGATTA]")
0.494
>>> obs_value("CTTAATCC (double strand) [8-mer CTTAATCC]")
0.494
>>> obs_value("CGGATTAG (double strand) [8-mer CGGATTAG]")
0.496
>>> obs_value("AGGATTAA (double strand) [8-mer AGGATTAA]")
0.494

---

# tested_on: pax-2 (K06B9.5) (Caenorhabditis elegans) (UniProt Q21263)
# Sequence: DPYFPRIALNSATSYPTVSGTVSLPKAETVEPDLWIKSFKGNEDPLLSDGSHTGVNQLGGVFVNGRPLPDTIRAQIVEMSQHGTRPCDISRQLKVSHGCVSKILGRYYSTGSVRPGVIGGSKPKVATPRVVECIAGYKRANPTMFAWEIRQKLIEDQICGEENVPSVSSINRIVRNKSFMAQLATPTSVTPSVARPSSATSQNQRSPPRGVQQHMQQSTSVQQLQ
value_type: binding signal (PBM E-score (-0.5 to 0.5))

>>> obs_value("GTCACGGA (double strand) [8-mer GTCACGGA]")
0.453
>>> obs_value("CGTGACGA (double strand) [8-mer CGTGACGA]")
0.461
>>> obs_value("ACCGTGAC (double strand) [8-mer ACCGTGAC]")
0.495
>>> obs_value("AGCGTGAC (double strand) [8-mer AGCGTGAC]")
0.488
>>> obs_value("ACCATGAC (double strand) [8-mer ACCATGAC]")
0.454
>>> obs_value("CGTCACGC (double strand) [8-mer CGTCACGC]")
0.488
>>> obs_value("GTCACGCA (double strand) [8-mer GTCACGCA]")
0.481
>>> obs_value("CGTGACCA (double strand) [8-mer CGTGACCA]")
0.479
>>> obs_value("CGGTCACG (double strand) [8-mer CGGTCACG]")
0.473
>>> obs_value("CCGTGACG (double strand) [8-mer CCGTGACG]")
0.489
>>> obs_value("GCGTGACC (double strand) [8-mer GCGTGACC]")
0.486
>>> obs_value("CCGTGACC (double strand) [8-mer CCGTGACC]")
0.484
>>> obs_value("GGCGTGAC (double strand) [8-mer GGCGTGAC]")
0.468

---

Listed here: items and their measured binding signal (PBM E-score (-0.5 to 0.5)).
# tested_on: elt-6 (F52C12.5) (Caenorhabditis elegans) (UniProt G5EGN3)
# Sequence: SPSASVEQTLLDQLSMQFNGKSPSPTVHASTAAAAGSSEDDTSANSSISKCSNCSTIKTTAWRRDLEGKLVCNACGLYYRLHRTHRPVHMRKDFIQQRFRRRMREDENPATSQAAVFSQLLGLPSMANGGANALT
value_type: binding signal (PBM E-score (-0.5 to 0.5))

>>> obs_value("GCTTATCA (double strand) [8-mer GCTTATCA]")
0.493
>>> obs_value("GTGATAAC (double strand) [8-mer GTGATAAC]")
0.492
>>> obs_value("GTGATAAA (double strand) [8-mer GTGATAAA]")
0.491
>>> obs_value("CTGATAAG (double strand) [8-mer CTGATAAG]")
0.496
>>> obs_value("CTGATAAC (double strand) [8-mer CTGATAAC]")
0.493
>>> obs_value("GGTGATAA (double strand) [8-mer GGTGATAA]")
0.494
>>> obs_value("CGTTATCA (double strand) [8-mer CGTTATCA]")
0.493
>>> obs_value("AGTGATAA (double strand) [8-mer AGTGATAA]")
0.495
>>> obs_value("TGATAACA (double strand) [8-mer TGATAACA]")
0.492
>>> obs_value("GCTGATAA (double strand) [8-mer GCTGATAA]")
0.493
>>> obs_value("ATGATAAG (double strand) [8-mer ATGATAAG]")
0.491
>>> obs_value("TCTTATCA (double strand) [8-mer TCTTATCA]")
0.495
>>> obs_value("ACTGATAA (double strand) [8-mer ACTGATAA]")
0.496
>>> obs_value("CCTTATCA (double strand) [8-mer CCTTATCA]")
0.496
>>> obs_value("CTTATCAC (double strand) [8-mer CTTATCAC]")
0.496
